Reference source for all entries: ChEMBL document CHEMBL1961873

Entries and their measured inhibition follow.
Target: Serine/threonine-protein kinase D2 (Homo sapiens);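 also: reported percent inhibition values are means, part of the GSK PKIS kinase panel screen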
Settings: at 0.1 µM
# number only, unit % dropped from output

Example entries begin here.
[[record]]
compound_smiles = "COc1cccc(-n2nc(C)c3c(N/N=C(\\C)c4ccncc4)ncnc32)c1"
reported_result = 0.82

[[record]]
compound_smiles = "NS(=O)(=O)c1ccc(NC=C2C(=O)Nc3ccc4ncsc4c32)cc1"
reported_result = 21.3

[[record]]
compound_smiles = "CCS(=O)(=O)c1ccc(OC)c(Nc2ncc(-c3cccc(OC)c3)o2)c1"
reported_result = 2.35


Please fill in: inhibition reported for "CS(=O)(=O)Nc1cccc(-c2ccc3c(NC(=O)C4CC4)n[nH]c3c2)c1" = 2.1

Please fill in: inhibition reported for "NC(=O)c1cccc(Nc2nccc(Nc3cccc(F)c3)n2)c1" = 0.71

Please fill in: inhibition reported for "NS(=O)(=O)c1ccc(N/N=C2\C(=O)Nc3ccc(Cl)cc32)cc1" = 3.87

Please fill in: inhibition reported for "FC(F)(F)c1ccc(-c2nn3ncccc3c2-c2ccnc(Nc3ccc4c(c3)OCCO4)n2)cc1" = 0.7

Please fill in: inhibition reported for "COc1cccc(-n2ncc3c(N/N=C/c4ccc(S(C)(=O)=O)cc4)ncnc32)c1" = -2.64
